- experimental-system: Neu5Ac(a2-8)Neu5Ac(a2-3)Gal(b1-4)Glc
- test-summary: glycan array binding signal (z-score within array); higher = stronger binding
- test-context: glycan notation: IUPAC condensed, linker removed
Only a selection was taken, and the strongest signals are over-represented in it overall.
Please provide measured glycan array binding signal (z-score) for the entries that follow.
Form rule: numeric answer, no unit written next to it.

Query: glycan array binding signal (z-score); subject: LSectin (Mus musculus), Q8BNX1 (protein) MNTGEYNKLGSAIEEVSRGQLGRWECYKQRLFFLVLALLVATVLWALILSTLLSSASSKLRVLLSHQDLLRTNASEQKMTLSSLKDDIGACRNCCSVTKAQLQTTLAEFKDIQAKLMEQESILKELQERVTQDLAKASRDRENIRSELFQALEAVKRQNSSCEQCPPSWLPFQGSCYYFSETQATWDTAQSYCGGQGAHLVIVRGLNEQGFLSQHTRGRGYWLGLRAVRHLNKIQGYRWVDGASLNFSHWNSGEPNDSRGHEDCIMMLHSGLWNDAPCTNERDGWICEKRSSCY -0.158

Query: glycan array binding signal (z-score); subject: DC-ASGPR-short (Homo sapiens) (protein) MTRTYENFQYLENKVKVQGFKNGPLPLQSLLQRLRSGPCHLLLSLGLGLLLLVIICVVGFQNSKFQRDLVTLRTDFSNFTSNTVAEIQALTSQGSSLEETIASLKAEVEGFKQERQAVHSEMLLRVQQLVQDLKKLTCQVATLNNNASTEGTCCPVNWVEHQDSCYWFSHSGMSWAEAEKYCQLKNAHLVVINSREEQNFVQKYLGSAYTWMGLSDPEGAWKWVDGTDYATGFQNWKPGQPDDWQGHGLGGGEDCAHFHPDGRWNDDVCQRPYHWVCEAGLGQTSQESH -0.277

Query: glycan array binding signal (z-score); subject: AT1G15820(2) (Arabidopsis thaliana), Q9LMQ2 (protein) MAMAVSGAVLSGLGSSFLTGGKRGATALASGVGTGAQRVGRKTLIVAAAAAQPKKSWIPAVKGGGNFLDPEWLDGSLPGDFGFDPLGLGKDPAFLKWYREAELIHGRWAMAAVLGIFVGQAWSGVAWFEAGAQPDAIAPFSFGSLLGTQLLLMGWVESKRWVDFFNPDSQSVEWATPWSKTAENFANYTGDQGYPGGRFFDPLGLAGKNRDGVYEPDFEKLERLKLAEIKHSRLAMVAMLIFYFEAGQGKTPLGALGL -0.326

Query: glycan array binding signal (z-score); subject: Tamarinin (protein) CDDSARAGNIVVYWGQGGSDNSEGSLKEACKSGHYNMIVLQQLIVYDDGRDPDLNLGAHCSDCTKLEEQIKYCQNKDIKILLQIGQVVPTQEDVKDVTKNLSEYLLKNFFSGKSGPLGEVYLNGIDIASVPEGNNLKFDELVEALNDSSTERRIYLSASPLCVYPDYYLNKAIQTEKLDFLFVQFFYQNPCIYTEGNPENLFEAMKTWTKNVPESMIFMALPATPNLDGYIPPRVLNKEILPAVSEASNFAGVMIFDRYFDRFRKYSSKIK -0.395

Query: glycan array binding signal (z-score); subject: Clec49 (Caenorhabditis elegans) (protein) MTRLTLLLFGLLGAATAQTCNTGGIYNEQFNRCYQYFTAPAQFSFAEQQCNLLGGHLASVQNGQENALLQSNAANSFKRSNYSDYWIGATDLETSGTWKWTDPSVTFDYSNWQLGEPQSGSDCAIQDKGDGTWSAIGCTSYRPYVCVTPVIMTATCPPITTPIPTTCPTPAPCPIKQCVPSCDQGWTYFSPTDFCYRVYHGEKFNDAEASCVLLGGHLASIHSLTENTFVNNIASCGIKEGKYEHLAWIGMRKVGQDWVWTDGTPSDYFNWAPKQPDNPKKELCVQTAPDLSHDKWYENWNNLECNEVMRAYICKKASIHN -0.326

Query: glycan array binding signal (z-score); subject: DrGal3 (Danio rerio) (protein) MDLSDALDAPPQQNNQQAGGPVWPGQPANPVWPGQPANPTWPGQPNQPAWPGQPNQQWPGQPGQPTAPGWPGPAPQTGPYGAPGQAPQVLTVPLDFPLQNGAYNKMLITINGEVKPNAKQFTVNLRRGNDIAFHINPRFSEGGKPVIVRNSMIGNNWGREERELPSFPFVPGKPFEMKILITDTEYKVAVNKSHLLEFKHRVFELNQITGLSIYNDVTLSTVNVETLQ -0.271

Query: glycan array binding signal (z-score); subject: LBL-152 (Laetiporus bicolor), B0D650 (protein) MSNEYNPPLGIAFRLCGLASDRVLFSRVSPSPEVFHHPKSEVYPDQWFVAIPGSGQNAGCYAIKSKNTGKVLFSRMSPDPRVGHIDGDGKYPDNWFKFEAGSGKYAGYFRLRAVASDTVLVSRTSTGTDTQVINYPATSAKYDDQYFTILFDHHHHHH -0.157

Query: glycan array binding signal (z-score); subject: XCL (Xerocomus chrysenteron) (protein) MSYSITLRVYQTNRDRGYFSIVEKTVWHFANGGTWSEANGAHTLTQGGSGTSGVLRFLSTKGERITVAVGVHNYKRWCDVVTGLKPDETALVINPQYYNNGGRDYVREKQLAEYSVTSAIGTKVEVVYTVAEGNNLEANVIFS -0.311

Query: glycan array binding signal (z-score); subject: CTLY 1 (Homo sapiens), Q6ZS10 (protein) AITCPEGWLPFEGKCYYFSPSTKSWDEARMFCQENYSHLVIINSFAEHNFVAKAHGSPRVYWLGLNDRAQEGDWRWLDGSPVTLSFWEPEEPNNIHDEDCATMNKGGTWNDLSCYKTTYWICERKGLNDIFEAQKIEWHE -0.252

Query: glycan array binding signal (z-score); subject: SP15308C-bot-338-23-338 (Bacteroides ovatus) (protein) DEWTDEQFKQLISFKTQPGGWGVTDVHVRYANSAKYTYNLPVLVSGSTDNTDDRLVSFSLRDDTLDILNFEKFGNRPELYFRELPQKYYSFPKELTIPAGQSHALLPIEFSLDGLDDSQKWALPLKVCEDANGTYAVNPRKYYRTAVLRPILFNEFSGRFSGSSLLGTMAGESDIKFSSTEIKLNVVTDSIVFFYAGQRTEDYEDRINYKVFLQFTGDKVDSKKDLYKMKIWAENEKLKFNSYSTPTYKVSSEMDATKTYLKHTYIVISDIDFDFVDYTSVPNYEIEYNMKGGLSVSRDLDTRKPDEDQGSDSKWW -0.032

Query: glycan array binding signal (z-score); subject: RsaA-N-term (Caulobacter crescentus), P35828 (protein) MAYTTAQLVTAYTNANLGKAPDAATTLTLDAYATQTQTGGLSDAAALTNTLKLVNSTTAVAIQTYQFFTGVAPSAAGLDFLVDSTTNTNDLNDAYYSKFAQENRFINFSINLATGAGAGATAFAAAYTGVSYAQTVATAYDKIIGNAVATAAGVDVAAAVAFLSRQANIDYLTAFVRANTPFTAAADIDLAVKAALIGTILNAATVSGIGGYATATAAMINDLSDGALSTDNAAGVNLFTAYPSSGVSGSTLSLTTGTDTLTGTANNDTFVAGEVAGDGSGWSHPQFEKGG -0.815
